tested.on: T1, human vascular endothelial growth factor receptor-2 Fc chimera (KDR-Fc) (human, UniProt P35968 20-764)
T1 construct: range 1-764; purchased from R&D Systems; also called hKDR; human VEGF-R2-Fc; not shown: human IgG1 Fc
experiment: radioactive equilibrium binding assay

| binder | Kd |
| --- | --- |
| E26 (designed binder, Del 1-8 10Fn3 clone; Flag-tagged in vitro translated protein in the radioactive assay, His6-tagged E. coli protein in BIAcore and cell assays; tags left out) EVVAATPTSLLISWRHPHFPTRYYRITYGETGGNSPVQEFTVPLQPPTATISGLKPGVDYTITGYAVTVERNGRELMTPISINYRT | < 1.7 nM |
| E5 (designed binder, Del 1-8 10Fn3 clone; Flag-tagged in vitro translated protein in the radioactive assay; tag left out) EVVAATPTSLLISWRHPHFPTRYYRITYGETGGNSPVQEFTVPLQPPTATISGLKPGVDYTITGYAVTDGQNGRLLNVPISINYRT | < 0.4 nM |
| E6 (designed binder, Del 1-8 10Fn3 clone; Flag-tagged in vitro translated protein in the radioactive assay, His6-tagged E. coli protein in BIAcore; tags left out) EVVAATPTSLLISWRHPHFPTRYYRITYGETGGNSPVQEFTVPLQPPTATISGLKPGVDYTITGYAVTDGWNGRLLSIPISINYRT | < 0.4 nM |
| E9 (designed binder, Del 1-8 10Fn3 clone; Flag-tagged in vitro translated protein in the radioactive assay; tag left out) EVVAATPTSLLISWRHPHFPTRYYRITYGETGGNSPVQEFTVPLQPPTATISGLKPGVDYTITGYAVTEERNGRTLRTPISINYRT | 2.4 nM |
| E3 (designed binder, Del 1-8 10Fn3 clone; Flag-tagged in vitro translated protein in the radioactive assay; tag left out) EVVAATPTSLLISWRHPHFPTRYYRITYGETGGNSPVQEFTVPLQPPTATISGLKPGVDYTITGYAVTDGRNDRKLMVPISINYRT | < 1 nM |
